assay summary: fungicidal lysis via adenylate kinase leakage – AK release luminescence, single concentration, primary screen (AID 651654)
stated conditions: C. neoformans lysis, 4 h, at 15 µM, normalised: neutral wells 0, clomiphene wells 100
In all, about 360,000 compounds went through this assay and about 740 (0.21%) were called active.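 How the source made its calls: active means mean lysis activity across replicates of at least 80%, whatever share of replicates individually reach that level; inactive means mean lysis activity below 80%.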 The entries come from a sample that favours actives as a whole.
Please state which outcome applies, choosing from YES (active), NO (inactive)

Example entries begin here.
INSERT INTO results (chemical_structure, assigned_category) VALUES
  ('O=C(c1ccncc1)N1CC[C@@H]2[C@H]1c1cc(Br)ccc1N[C@@H]2CO', 'NO'),
  ('COC(=O)C[C@H]1C[C@H]2c3cc(NC(=O)Nc4ccccc4F)ccc3O[C@H]2[C@H](CO)O1', 'NO'),
  ('N#C[C@@H]1[C@@H](c2ccc(-c3ccccc3)cc2)[C@@H](CO)N1C(=O)Cc1ccccc1', 'NO'),
  ('COCC(=O)Nc1ccc2c(c1)OC[C@H](C)N(C(=O)c1ccccn1)C[C@@H](C)[C@H](OC)CN(C)C2=O', 'NO'),
  ('CO[C@H]1CN(C)C(=O)c2ccc(NC(=O)Cc3ccccc3)cc2OC[C@@H](C)N(C(C)=O)C[C@H]1C', 'NO'),
  ('C[C@@H]1CN([C@@H](C)CO)C(=O)c2cc(NS(=O)(=O)c3cn(C)cn3)ccc2O[C@@H](C)CCCCO[C@@H]1CN(C)Cc1ccncc1', 'NO');

-- ask In this assay, the call recorded for N#C[C@H]1[C@H](c2ccc(-c3ccccc3)cc2)[C@@H](CO)N1C(=O)Cc1ccccc1 was what?
-- reply NO

-- ask Which outcome did this test record for the compound N#C[C@@H]1[C@@H](c2ccccc2)[C@@H](CO)N1C(=O)Cc1ccccc1 ?
-- reply YES

----------
assay summary: fungicidal lysis via adenylate kinase leakage – AK release luminescence, single concentration, primary screen (AID 651654)
stated conditions: C. neoformans lysis, 4 h, at 15 µM, active compounds read high, normalised: neutral wells 0, clomiphene wells 100
In all, about 360,000 compounds went through this assay and about 740 (0.21%) were called active. The sample holds actives, similar compounds and a random draw of the others, so the mix is not that of the screen.
attribute measured: lysis activity (%)
Give the value in % but do not write % after it.

Consider the reported lysis activity for these molecules:
INSERT INTO measurements (chemical_structure, recorded_measurement) VALUES
  ('COCC(=O)Nc1ccc2c(c1)C(=O)N(C)[C@@H]1CC[C@@H](CC(=O)NCc3cccc(F)c3)O[C@@H]1CO2', 1.56),
  ('O=C(CN1CCOCC1)NC[C@@H]1N[C@@H](CO)[C@@H]1c1ccc(-c2ccccc2)cc1', 4.94),
  ('CC(C)NC(=O)N[C@H]1CC[C@H](CC(=O)NC2Cc3ccccc3C2)O[C@H]1CO', -0.817),
  ('COc1cccc(C(=O)Nc2ccc3c(c2)C(=O)N(C)C[C@@H](OC)[C@@H](C)CN(C)[C@@H](C)CO3)c1', -1.94),
  ('O=C(C[C@H]1CC[C@H](NC(=O)C2CCC2)[C@@H](CO)O1)Nc1nccs1', 5.79),
  ('CO[C@H]1CN(C)C(=O)c2cc(NS(=O)(=O)CC(F)(F)F)ccc2OC[C@@H](C)N(Cc2nccs2)C[C@@H]1C', 0.476),
  ('CCC(=O)N1[C@@H]2CN(C(=O)Nc3ccc(Cl)cc3)c3ccccc3[C@@H]2[C@@H]1CO', -1.93);

Now turn to the next molecule.
-- ask What value of lysis activity has been recorded for this entry: C[C@H](CO)N1C[C@H](C)[C@H](CN(C)C(=O)c2ccccc2)OCCCC[C@H](C)Oc2ccc(N(C)C)cc2C1=O
-- reply 1.62
